System: L1210 leukemia ip in BDF1 mice, survival T/C
METHOD: NCI In Vivo Anticancer Drug Screen. Data for tumor model L1210 Leukemia (intraperitoneal) in B6D2F1 (BDF1) mice
CONDITION_LABEL: endpoint: mean survival time; dose: 200.0 mg/kg/injection; schedule: Q01DX009 (ip); vehicle: Klucel (hydroxypropylcellulose) (HPC); higher = longer survival
Inconclusive results and toxic doses are left out.
Please provide measured T/C for the entries that follow.

Below, each entry is followed by its recorded T/C result.
Exam item: What value of T/C has been recorded for this entry: ClC(c1ccccc1)C1(Br)C=c2ccccc2=C1 (configuration not stated)
Marked response: 97 % of control

Exam item: What value of T/C has been recorded for this entry: O=CC(=O)Nc1ccc(C(=O)O)c(O)c1
Marked response: 95 % of control

Exam item: What value of T/C has been recorded for this entry: COC1=C(NC2CCCCC2)C(=O)C(OC)=C(NC2CCCCC2)C1=O
Marked response: 98 % of control

Exam item: What value of T/C has been recorded for this entry: CCCC(=O)Nc1cc(OC)ccc1OC
Marked response: 97 % of control

// input: 8 molecules below; output: T/C for each
1. COC(=O)C1C2C=CC(C2)C1C(=O)O (configuration not stated)
2. COc1ccc(Cl)cc1NC(=O)Nc1ccc(S(N)(=O)=O)cc1
3. O=C(Nc1ccccn1)Nc1cc(C(F)(F)F)ccc1Cl
4. CSc1ccc(/C=N/NC(N)=S)cc1
5. CC(=O)c1cccc(N=Cc2ccc(Cl)cc2Cl)c1
6. COc1cc(NC(=O)CC(C)=O)cc2c(C)cc(=O)n(C)c12
7. CN(C)c1ccccc1C(=O)NNC(=S)Nc1ccccc1
8. c1ccc2c(c1)CCc1ccccc1CC2

Marked response:
["92 % of control", "93 % of control", "92 % of control", "92 % of control", "93 % of control", "98 % of control", "96 % of control", "96 % of control"]

// input: 8 molecules below; output: T/C for each
1. CN(C)c1ccc(/C=N\N=C/c2ccc(N(C)C)cc2)cc1
2. CCOC(=O)c1[nH]c(C)c(C(=O)OCC)c1C
3. CC1OCOC2COCOC2C1O (configuration not stated)
4. COc1cc2oc(C)c(C)c2cc1/C=C\[N+](=O)[O-]
5. CC1=CC(C)(C)NC(=S)N1
6. C[Si](C)(C)c1c(F)c(F)cc(F)c1F
7. Cc1c(Cl)cccc1N1C(=O)CC(Sc2ccccc2N)C1=O (configuration not stated)
8. COc1ccc([N+](=O)[O-])cc1NC(=O)N(Cc1ccccc1)c1ccccc1

Marked response:
103 % of control
103 % of control
94 % of control
98 % of control
101 % of control
112 % of control
92 % of control
96 % of control

====

Please provide measured T/C for the entries that follow.
Test system: L1210 leukemia ip in BDF1 mice, survival T/C
METHOD: NCI In Vivo Anticancer Drug Screen. Data for tumor model L1210 Leukemia (intraperitoneal) in B6D2F1 (BDF1) mice
CONDITION_LABEL: endpoint: mean survival time; dose: 100.0 mg/kg/injection; schedule: Q01DX009 (ip); vehicle: Klucel (hydroxypropylcellulose) (HPC); higher = longer survival
Protocol: The antitumor activity of compounds was measured in mice bearing transplantable tumors. Survival or tumor size were measured and the results are expressed as the measurement made in the treated group (T) divided by the measurement made in the vehicle treated control group (C). The tumor model used in this assay is L1210 Leukemia (intraperitoneal) in B6D2F1 (BDF1) mice
Toxic doses and inconclusive results are not listed.

Below, each entry is followed by its recorded T/C result.
Exam item: What value of T/C has been recorded for this entry: CN(Cc1ccccc1)C(=O)Nc1ccc(Cl)c(Cl)c1
Marked response: 97 % of control

Exam item: What value of T/C has been recorded for this entry: O=C(NC(=S)Nc1ccc(F)cc1)c1cccc2ccccc12
Marked response: 96 % of control

Exam item: What value of T/C has been recorded for this entry: CCOP(=O)(NC12CC3CC(CC(C3)C1)C2)OCC
Marked response: 97 % of control

Exam item: What value of T/C has been recorded for this entry: Cc1ccc(CNc2ccc(Cl)cc2)cc1
Marked response: 95 % of control

// input: 4 compounds below; output: T/C for each
1. CCc1ccccc1NC(=O)Nc1ccc(C(=O)O)c(O)c1
2. COc1cccc(NC(=O)NCc2ccco2)c1
3. CO[C@H]1/C=C/O[C@@]2(C)Oc3c(C)c(O)c4c(O)c(c(/C=N/N5C(C)CN(Cc6ccccc6)CC5C)c(O)c4c3C2=O)NC(=O)/C(C)=C\C=C\[C@H](C)[C@H](O)[C@@H](C)[C@@H](O)[C@@H](C)[C@H](OC(C)=O)[C@@H]1C (stereo partly drawn)
4. CCOC(=O)c1cnc(SC)nc1Nc1ccc(Cl)cc1Cl

Marked response:
1: 95 % of control; 2: 106 % of control; 3: 101 % of control; 4: 103 % of control

// input: 8 compounds below; output: T/C for each
1. CCCCOP(=O)(CCl)OCCCC
2. CC/C(C)=N\NC(=O)CC(=O)N/N=C(/C)CC
3. CCOC(=O)C(C(=O)Nc1ccccc1)C(=O)OCC
4. O=S1(=O)C(C(O)(c2ccccc2)c2ccccc2)CCC1C(O)(c1ccccc1)c1ccccc1 (stereo not drawn)
5. Cc1cc(NC(=O)Nc2cc(F)ccc2F)no1
6. CCOP(=O)(CCN(C(C)C)C(C)C)OCC
7. Cc1cccc(C)c1-n1nnnc1N
8. OC1C2CC3C1C3C2c1ccccc1 (stereo not drawn)

Marked response:
1. 98 % of control
2. 95 % of control
3. 99 % of control
4. 98 % of control
5. 97 % of control
6. 100 % of control
7. 119 % of control
8. 102 % of control

// input: 5 compounds below; output: T/C for each
1. Cc1ccc(S(=O)(=O)Oc2ccc(I)cc2)cc1
2. O=C(O)c1ccccc1C(=O)Nc1cc(Cl)ccc1Cl
3. COc1ccc(Cl)cc1NC(=O)c1ccc(C(=O)Nc2cc(Cl)ccc2OC)cc1
4. ClC(c1ccccc1)C1(Br)C=c2ccccc2=C1 (stereo not drawn)
5. Cc1cc(=O)n(C)c2ccccc12

Marked response:
["107 % of control", "98 % of control", "90 % of control", "97 % of control", "104 % of control"]

// input: 2 compounds below; output: T/C for each
1. S=c1[nH]c2ccc(Cl)cc2s1
2. CSc1ccc(/C=N/NC(N)=S)cc1

Marked response:
1. 97 % of control
2. 103 % of control

// input: 8 compounds below; output: T/C for each
1. OC1CCC2CCCC2C1 (stereo not drawn)
2. COC(=O)c1c(I)cccc1[N+](=O)[O-]
3. CN(C)c1ccc(C(C[N+](=O)[O-])(c2ccc(N(C)C)cc2)c2ccc(N(C)C)cc2)cc1
4. O=C(CS)OCCOC(=O)CS
5. COc1cc(Br)c(CCBr)cc1OC
6. O=C(NN(c1ccccc1)c1cccc2ccccc12)c1ccccc1
7. O=C(Nc1ccccc1)OCC1CC2CCC1C2 (stereo not drawn)
8. CCOC(=O)CNC(=O)Nc1cccc(Cl)c1Cl

Marked response:
["97 % of control", "92 % of control", "93 % of control", "92 % of control", "100 % of control", "103 % of control", "96 % of control", "102 % of control"]

// input: 4 compounds below; output: T/C for each
1. CN(C)c1ccccc1C(=O)NNC(=S)Nc1ccccc1
2. COC(=O)C1C2C=CC(C2)C1C(=O)O (stereo not drawn)
3. CCCCNC(=O)Nc1cccc(C)c1C
4. C=CCNC(=S)N(C)Cc1ccccc1Cl

Marked response:
["103 % of control", "103 % of control", "101 % of control", "90 % of control"]

// input: 3 compounds below; output: T/C for each
1. CCOC(=O)NNC(N)=S
2. CC1CCCC(C)(C)C1NCc1cc(Br)cc(Br)c1O (stereo not drawn)
3. c1ccc2c(c1)CCc1ccccc1CC2

Marked response:
["102 % of control", "107 % of control", "93 % of control"]
